studyTarget: Carbonic anhydrase 9 (Homo sapiens)
assaySummary: Inhibition of human recombinant carbonic anhydrase 9 pre-incubated for 15 mins by stopped-flow CO2 hydration assay
pKi: −log10 of the molar value.
Below, each entry is listed alongside its reported pKi.
measuredProperty: pKi

>>> print(df.to_string())
                            smilesstructure  assayvalue
0  COc1cccc(/C=C/C(=O)C[C@@H]2O[C@H](CO)[C@@H](O)[C@H](O)[C@H]2O)c1        6.21
1  COc1ccc(/C=C/C(=O)C[C@@H]2O[C@H](COC(C)=O)[C@H](OC(C)=O)[C@H](OC(C)=O)[C@H]2OC(C)=O)cc1OC        6.11
2  COc1ccc(/C=C/C(=O)C[C@@H]2O[C@H](CO)[C@H](O)[C@H](O)[C@H]2O)cc1OC        6.03
3  COc1ccc(/C=C/C(=O)C[C@@H]2O[C@H](COC(C)=O)[C@@H](OC(C)=O)[C@H](OC(C)=O)[C@H]2OC(C)=O)cc1OC        6.12
4  COc1cccc(/C=C/C(=O)C[C@@H]2O[C@H](COC(C)=O)[C@H](OC(C)=O)[C@H](OC(C)=O)[C@H]2OC(C)=O)c1        7.03
5  COc1cccc(/C=C/C(=O)C[C@@H]2O[C@H](COC(C)=O)[C@@H](OC(C)=O)[C@H](OC(C)=O)[C@H]2OC(C)=O)c1        6.11
6  COc1ccc2cc(/C=C/C(=O)C[C@@H]3O[C@H](CO)[C@H](O)[C@H](O)[C@H]3O)ccc2c1        6.31
7  COc1ccc(/C=C/C(=O)C[C@@H]2O[C@H](CO)[C@@H](O)[C@H](O)[C@H]2O)cc1OC        6.08
8  COc1ccc2cc(/C=C/C(=O)C[C@@H]3O[C@H](CO)[C@@H](O)[C@H](O)[C@H]3O)ccc2c1        6.34
9  COc1cccc(/C=C/C(=O)C[C@@H]2O[C@H](CO)[C@H](O)[C@H](O)[C@H]2O)c1        5.41

Entry source: ChEMBL document CHEMBL3352068
